assay_target: full-length beta-Catenin (Uniprot ID P35222) (Homo sapiens)
Construct: 10 nM full-length beta-Catenin (Uniprot ID P35222)
Sequence (P35222 whole entry): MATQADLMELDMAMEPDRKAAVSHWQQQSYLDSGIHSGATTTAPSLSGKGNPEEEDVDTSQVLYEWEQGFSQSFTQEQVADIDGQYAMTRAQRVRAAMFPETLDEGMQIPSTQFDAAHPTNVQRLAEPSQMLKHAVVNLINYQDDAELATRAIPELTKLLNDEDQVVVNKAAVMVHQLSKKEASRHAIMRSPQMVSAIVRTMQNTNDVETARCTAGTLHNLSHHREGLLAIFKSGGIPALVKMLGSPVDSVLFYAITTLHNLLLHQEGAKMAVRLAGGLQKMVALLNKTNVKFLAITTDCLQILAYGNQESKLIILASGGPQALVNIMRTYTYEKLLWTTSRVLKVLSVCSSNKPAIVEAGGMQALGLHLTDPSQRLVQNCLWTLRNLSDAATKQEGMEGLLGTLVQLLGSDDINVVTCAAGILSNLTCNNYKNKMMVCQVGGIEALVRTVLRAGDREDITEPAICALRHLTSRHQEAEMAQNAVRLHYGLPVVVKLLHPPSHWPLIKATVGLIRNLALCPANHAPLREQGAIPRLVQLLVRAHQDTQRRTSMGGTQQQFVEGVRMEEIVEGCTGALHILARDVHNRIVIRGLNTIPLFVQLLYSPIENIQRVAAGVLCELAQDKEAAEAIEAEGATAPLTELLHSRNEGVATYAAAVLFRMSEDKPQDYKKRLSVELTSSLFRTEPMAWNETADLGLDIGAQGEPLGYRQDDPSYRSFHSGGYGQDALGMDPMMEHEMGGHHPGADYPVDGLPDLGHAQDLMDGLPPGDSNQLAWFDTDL
test_summary: Fluorescence polarization IC50 (beta-catenin / 5FAM-TCF4 10-53 competition)
Type: binding
condition_details: fluorescence polarization; read-out: beta-Catenin FP IC50
Would you mind telling me the reported IC50 of each entry?
I'd appreciate it if you wrote the number followed by its unit.

Supply reported IC50 belonging to this compound: CC(=O)N1CCC[C@]12CC=CCCCC1(CCCC=CCCCOC(=O)N3CC[C@@](C(=O)N[C@@H](Cc4ccccc4)C(=O)N[C@@H](Cc4csc5ccccc45)C(=O)N[C@@H](CCCCN)C(N)=O)(C3)NC(=O)[C@H](CC(C)C)NC(=O)[C@H](Cc3ccccc3)NC(=O)[C@H](C)NC(=O)[C@H](CCO)NC(=O)[C@H](CCC(N)=O)NC(=O)[C@H](CC(=O)O)NC1=O)NC(=O)[C@H](CC1CCCCC1)NC(=O)[C@H](CC(N)=O)NC2=O (some centres unmarked) [I-2419]
203 nM

State, in one line, measured IC50 of CC(=O)N1CCC[C@]12CC=CCCCC1(CCCC=CCCCCCC[C@@](C)(C(=O)N[C@@H](Cc3ccsc3)C(=O)N[C@@H](Cc3csc4ccccc34)C(=O)N[C@@H](CO)C(N)=O)NC(=O)[C@H](CC(C)C)NC(=O)[C@H](Cc3ccccc3)NC(=O)[C@H](C)NC(=O)[C@H](C)NC(=O)[C@H](CC(=O)O)NC(=O)[C@H](CC(=O)O)NC1=O)NC(=O)[C@H](CC(C)(C)C)NC(=O)[C@H](CC(=O)O)NC2=O (some centres unmarked) [I-1190]
58.5 nM
